# Test system: HSB
# ASSAY_TEXT: T-cell test with 2'-deoxyguanosine, HSB
# Assay type: cell-based
# TEST_SETTINGS: with 2'-deoxyguanosine (10 micromoles), read-out: ED50 (toxic for T-lymphoblasts)
pIC50: −log10 of the molar value.
MEASUREMENT_LABEL: pIC50

Tell me reported pIC50 for Cl.N=C(N)c1csc([C@@H]2O[C@H](CO)[C@@H](O)[C@H]2O)n1 [Example 1, hydrochloride] , tested with HSB.
~5.15
